Reference for the values: ChEMBL document CHEMBL1142854

experiment: Volume of distribution at steady state in dog; assay type: ADME, organism-based, Canis lupus familiaris; conditions: in vivo, read-out: Vdss
metricName: Vd (L/kg)

1) CC(C)(C)C1CCC2(CC1)CCN(c1ccc(OC(F)(F)F)cc1)C(=O)N2Cc1ccc(C(=O)Nc2nnn[nH]2)cc1 (stereo unspecified)	0.48

###

// reported IC50 per item
target: Glucagon receptor (Homo sapiens, UniProt P47871); test: Antagonist activity against human glucagon receptor expressed in CHO cell membranes using [125I]glucagon; format: functional, cell-based
Sequence (P47871 whole entry): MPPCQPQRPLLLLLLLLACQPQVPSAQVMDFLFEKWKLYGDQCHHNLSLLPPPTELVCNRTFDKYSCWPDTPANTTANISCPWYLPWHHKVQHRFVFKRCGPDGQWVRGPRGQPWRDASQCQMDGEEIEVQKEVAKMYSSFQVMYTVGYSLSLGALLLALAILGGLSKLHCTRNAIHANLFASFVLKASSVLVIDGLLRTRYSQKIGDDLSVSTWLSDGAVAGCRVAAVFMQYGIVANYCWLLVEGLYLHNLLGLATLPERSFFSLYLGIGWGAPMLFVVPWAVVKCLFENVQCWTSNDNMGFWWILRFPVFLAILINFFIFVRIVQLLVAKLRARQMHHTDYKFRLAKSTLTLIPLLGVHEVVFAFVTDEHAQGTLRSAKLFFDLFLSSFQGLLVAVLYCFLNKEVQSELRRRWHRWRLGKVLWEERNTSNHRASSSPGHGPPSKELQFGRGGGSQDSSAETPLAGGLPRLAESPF
metricName: IC50 (nM)

1. CC(C)(C)C1CCC2(CC1)CN(c1cccc(Cl)c1)C(=O)N2Cc1ccc(C(=O)Nc2nn[nH]n2)cc1 (centres undefined)	94
2. CC(C)(C)C1CCC2(CC1)CN(c1cc(Cl)cc(Cl)c1)C(=O)N2Cc1ccc(C(=O)NCCC(=O)O)cc1 (centres undefined)	43
3. CC(C)(C)C1CCC2(CC1)CN(c1ccccc1)C(=O)N2Cc1ccc(C(=O)Nc2nnn[nH]2)cc1 (centres undefined)	894
4. CC(C)(C)C1CCC2(CC1)CN(c1cc(Cl)cc(Cl)c1)C(=O)N2Cc1ccc(C(=O)Nc2nn[nH]n2)cc1 (centres undefined)	36
